The values you see were collected from paper PMC6009979.

Target: hA2A AR (Homo sapiens, UniProt P29274)
Construct: expressed in transfected cells; host or cells: CHO cells (membranes)
Sequence (P29274 whole entry): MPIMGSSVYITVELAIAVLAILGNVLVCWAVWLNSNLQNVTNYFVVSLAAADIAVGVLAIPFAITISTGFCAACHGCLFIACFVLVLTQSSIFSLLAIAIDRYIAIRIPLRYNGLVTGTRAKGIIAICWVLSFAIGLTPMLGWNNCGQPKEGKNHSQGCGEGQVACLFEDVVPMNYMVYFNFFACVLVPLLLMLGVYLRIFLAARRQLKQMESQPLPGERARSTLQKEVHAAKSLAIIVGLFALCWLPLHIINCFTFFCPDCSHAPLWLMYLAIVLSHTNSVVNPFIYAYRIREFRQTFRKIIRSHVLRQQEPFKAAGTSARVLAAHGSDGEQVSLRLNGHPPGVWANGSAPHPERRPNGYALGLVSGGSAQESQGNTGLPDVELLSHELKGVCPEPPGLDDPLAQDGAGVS
Assay: [3H]ZM241385 competition binding to hA2A CHO membranes
Details: inhibition at 1 μM; [3H]ZM241385, hA2A CHO
Each entry gets not met if its Binding experiments I% hA2A stays under 20%, and met if its Binding experiments I% hA2A is 20% or above.

(Q) Item Nc1nc(NCCc2ccccc2)nc2cn(-c3ccccc3)nc12 with Binding experiments I% hA2A of 20% or above?
(A) met

(Q) Item Nc1nc(NCCCc2ccccc2)nc2cn(-c3ccccc3)nc12 with Binding experiments I% hA2A of 20% or above?
(A) met

(Q) Item Nc1nc(N2CCN(Cc3ccc(F)cc3Cl)CC2)nc2cn(-c3ccccc3)nc12 with Binding experiments I% hA2A of 20% or above?
(A) met

====

Biological target: hA3 AR (Homo sapiens)
Construct: expressed in transfected cells; host or cells: CHO cells (membranes)
Sequence (P0DMS8 1-318): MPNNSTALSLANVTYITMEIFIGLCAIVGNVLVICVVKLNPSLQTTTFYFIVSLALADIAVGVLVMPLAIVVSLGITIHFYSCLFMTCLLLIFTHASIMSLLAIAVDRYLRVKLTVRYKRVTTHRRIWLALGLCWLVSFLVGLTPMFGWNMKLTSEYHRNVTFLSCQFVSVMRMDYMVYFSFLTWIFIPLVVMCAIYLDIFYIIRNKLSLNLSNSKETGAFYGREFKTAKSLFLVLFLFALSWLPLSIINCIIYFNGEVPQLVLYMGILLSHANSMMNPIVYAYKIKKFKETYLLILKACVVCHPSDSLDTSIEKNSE
Test: [125I]AB-MECA competition binding to hA3 CHO membranes
Settings: inhibition at 1 μM, read-out: Binding experiments I% hA3
Procedure: All synthesized compounds were tested to evaluate their affinity at human A1, A2A and A3 ARs. […] Non-specific binding was determined in the presence 1 µM of DPCPX (≤10% of the total binding). […] Bound and free radioactivity were separated by filtering the assay mixture through Whatman GF/B glass fiber filters by using a Brandel cell harvester. The filter bound radioactivity was counted by Scintillation Counter Packard Tri Carb 2810 TR with an efficiency of 58%. […]
parameter.measured: inhibition (%)
Express it in %; write the number only.

Use these answered entries as a reference point.
- Nc1nc(N2CCN(Cc3ccc(F)cc3Cl)CC2)nc2cn(-c3ccccc3)nc12 [Compound 19]: 1
- CC(C)(C)CC(=O)N1CCN(c2nc(N)c3nn(-c4ccccc4)cc3n2)CC1 [Compound 23]: 1

(Q) State, in one line, measured inhibition of Nc1nc(N2CCN(Cc3c(F)cc(F)cc3F)CC2)nc2cn(-c3ccccc3)nc12 [Compound 18]
(A) 39

(Q) State, in one line, measured inhibition of Nc1nc(N2CCN(CCc3ccccc3)CC2)nc2cn(-c3ccccc3)nc12 [Compound 17]
(A) 40

====

Molecular target: UniProt:P30542
Sequence (P30542 1-326): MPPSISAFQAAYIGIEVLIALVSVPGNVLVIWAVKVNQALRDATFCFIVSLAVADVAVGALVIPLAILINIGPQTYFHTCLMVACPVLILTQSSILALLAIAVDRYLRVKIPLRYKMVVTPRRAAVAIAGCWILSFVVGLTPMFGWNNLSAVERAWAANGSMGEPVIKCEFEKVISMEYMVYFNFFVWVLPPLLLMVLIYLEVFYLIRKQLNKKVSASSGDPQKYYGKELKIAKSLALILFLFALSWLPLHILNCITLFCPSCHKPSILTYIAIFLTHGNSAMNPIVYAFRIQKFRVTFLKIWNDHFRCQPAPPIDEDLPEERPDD
parameter.measured: Ki (nM)
Express it in nM; write the number only.

- COc1ccc(CCNc2nc(N)c3nn(-c4ccccc4)cc3n2)cc1OC [Compound 13]: 415
- Nc1nc(Nc2ccccc2)nc2cn(-c3ccccc3)nc12 [Compound 1]: 67

(Q) State, in one line, measured Ki of Nc1nc(N2CCN(C(=O)c3ccco3)CC2)nc2cn(-c3ccccc3)nc12 [Compound 20]
(A) 580

(Q) State, in one line, measured Ki of Nc1nc(NCc2ccccc2)nc2cn(-c3ccccc3)nc12 [Compound 5]
(A) 25

(Q) State, in one line, measured Ki of Nc1nc(N2CCN(Cc3ccc(F)cc3Cl)CC2)nc2cn(-c3ccccc3)nc12 [Compound 19]
(A) 193

(Q) State, in one line, measured Ki of Nc1nc(NCCc2ccccc2)nc2cn(-c3ccccc3)nc12 [Compound 6]
(A) 11.5
